# System: HCC-2998
# ASSAY_METHOD_TEXT: NCI 60 cell line screen
# Type: cell-based
# RUN_CONDITIONS: HCC-2998, Colon Cancer; single concentration 10^−5 M
READOUT: Growth % (%)

COMPOUND | NUMERIC_VALUE
COc1cc(OC)cc(-c2cc(-c3c[nH]c4ccccc34)nc(-c3c[nH]c4ccccc34)c2C#N)c1 [4f] | 112.62
N#Cc1c(-c2ccc([N+](=O)[O-])cc2)cc(-c2c[nH]c3ccccc23)nc1-c1c[nH]c2ccccc12 [4h] | 108.98
COc1cc(-c2cc(-c3c[nH]c4ccccc34)nc(-c3c[nH]c4ccccc34)c2C#N)cc(OC)c1OC [4g] | 107.87
N#Cc1c(-c2ccc(F)cc2)cc(-c2c[nH]c3ccccc23)nc1-c1c[nH]c2ccccc12 [4d] | 109.40
N#Cc1c(-c2ccccc2)cc(-c2c[nH]c3ccccc23)nc1-c1c[nH]c2ccccc12 [4a] | 93.57
N#Cc1c(-c2ccc(Cl)cc2)cc(-c2c[nH]c3ccccc23)nc1-c1c[nH]c2ccccc12 [4c] | 117.80
N#Cc1c(-c2ccc(O)cc2)cc(-c2c[nH]c3ccccc23)nc1-c1c[nH]c2ccccc12 [4j] | 126.05
COc1ccc(-c2cc(-c3c[nH]c4ccccc34)nc(-c3c[nH]c4ccccc34)c2C#N)cc1 [4e] | 128.75
CN(C)c1ccc(-c2cc(-c3c[nH]c4ccccc34)nc(-c3c[nH]c4ccccc34)c2C#N)cc1 [4i] | 88.23
N#Cc1c(-c2ccc(Br)cc2)cc(-c2c[nH]c3ccccc23)nc1-c1c[nH]c2ccccc12 [4b] | 114.86

----------
Listing of entries alongside the reported Growth %.
# Test system: HCT-116
# ASSAY_METHOD_TEXT: NCI 60 cell line screen
# Type: cell-based, human
# RUN_CONDITIONS: HCT-116, Colon Cancer; single concentration 10^−5 M
READOUT: Growth % (%)

SMILES_STRUCTURE | READOUT | UNIT_INFO | NUMERIC_VALUE
CN(C)c1ccc(-c2cc(-c3c[nH]c4ccccc34)nc(-c3c[nH]c4ccccc34)c2C#N)cc1 | Growth % | % | 57.78
N#Cc1c(-c2ccccc2)cc(-c2c[nH]c3ccccc23)nc1-c1c[nH]c2ccccc12 | Growth % | % | 103.11
N#Cc1c(-c2ccc(Br)cc2)cc(-c2c[nH]c3ccccc23)nc1-c1c[nH]c2ccccc12 | Growth % | % | 104.37
N#Cc1c(-c2ccc(O)cc2)cc(-c2c[nH]c3ccccc23)nc1-c1c[nH]c2ccccc12 | Growth % | % | 105.38
N#Cc1c(-c2ccc(Cl)cc2)cc(-c2c[nH]c3ccccc23)nc1-c1c[nH]c2ccccc12 | Growth % | % | 106.26
COc1cc(-c2cc(-c3c[nH]c4ccccc34)nc(-c3c[nH]c4ccccc34)c2C#N)cc(OC)c1OC | Growth % | % | 104.41
COc1cc(OC)cc(-c2cc(-c3c[nH]c4ccccc34)nc(-c3c[nH]c4ccccc34)c2C#N)c1 | Growth % | % | 100.81
N#Cc1c(-c2ccc([N+](=O)[O-])cc2)cc(-c2c[nH]c3ccccc23)nc1-c1c[nH]c2ccccc12 | Growth % | % | 100.64
COc1ccc(-c2cc(-c3c[nH]c4ccccc34)nc(-c3c[nH]c4ccccc34)c2C#N)cc1 | Growth % | % | 106.07
N#Cc1c(-c2ccc(F)cc2)cc(-c2c[nH]c3ccccc23)nc1-c1c[nH]c2ccccc12 | Growth % | % | 104.67

----------
# System: MDA-MB-468
# ASSAY_METHOD_TEXT: NCI 60 cell line screen
# Type: cell-based
# RUN_CONDITIONS: MDA-MB-468, Breast Cancer; single concentration 10^−5 M
Listing of entries alongside the reported Growth %.

SMILES_STRUCTURE | Growth %
COc1cc(OC)cc(-c2cc(-c3c[nH]c4ccccc34)nc(-c3c[nH]c4ccccc34)c2C#N)c1 | 92.23%
N#Cc1c(-c2ccc([N+](=O)[O-])cc2)cc(-c2c[nH]c3ccccc23)nc1-c1c[nH]c2ccccc12 | 92.34%
N#Cc1c(-c2ccc(F)cc2)cc(-c2c[nH]c3ccccc23)nc1-c1c[nH]c2ccccc12 | 99.29%
N#Cc1c(-c2ccc(O)cc2)cc(-c2c[nH]c3ccccc23)nc1-c1c[nH]c2ccccc12 | 101.94%
CN(C)c1ccc(-c2cc(-c3c[nH]c4ccccc34)nc(-c3c[nH]c4ccccc34)c2C#N)cc1 | 81.79%
N#Cc1c(-c2ccccc2)cc(-c2c[nH]c3ccccc23)nc1-c1c[nH]c2ccccc12 | 93.05%
N#Cc1c(-c2ccc(Cl)cc2)cc(-c2c[nH]c3ccccc23)nc1-c1c[nH]c2ccccc12 | 102.95%
N#Cc1c(-c2ccc(Br)cc2)cc(-c2c[nH]c3ccccc23)nc1-c1c[nH]c2ccccc12 | 104.30%
COc1cc(-c2cc(-c3c[nH]c4ccccc34)nc(-c3c[nH]c4ccccc34)c2C#N)cc(OC)c1OC | 93.79%
COc1ccc(-c2cc(-c3c[nH]c4ccccc34)nc(-c3c[nH]c4ccccc34)c2C#N)cc1 | 102.09%

----------
# System: HCT-15
# ASSAY_METHOD_TEXT: NCI 60 cell line screen
# Assay type: cell-based
# RUN_CONDITIONS: HCT-15, Colon Cancer; single concentration 10^−5 M
READOUT: Growth % (%)

SMILES_STRUCTURE | UNIT_INFO | NUMERIC_VALUE
COc1cc(OC)cc(-c2cc(-c3c[nH]c4ccccc34)nc(-c3c[nH]c4ccccc34)c2C#N)c1 | % | 101.68
N#Cc1c(-c2ccccc2)cc(-c2c[nH]c3ccccc23)nc1-c1c[nH]c2ccccc12 | % | 99.26
N#Cc1c(-c2ccc([N+](=O)[O-])cc2)cc(-c2c[nH]c3ccccc23)nc1-c1c[nH]c2ccccc12 | % | 99.04
CN(C)c1ccc(-c2cc(-c3c[nH]c4ccccc34)nc(-c3c[nH]c4ccccc34)c2C#N)cc1 | % | 44.65
COc1cc(-c2cc(-c3c[nH]c4ccccc34)nc(-c3c[nH]c4ccccc34)c2C#N)cc(OC)c1OC | % | 100.84
N#Cc1c(-c2ccc(Cl)cc2)cc(-c2c[nH]c3ccccc23)nc1-c1c[nH]c2ccccc12 | % | 98.27
N#Cc1c(-c2ccc(Br)cc2)cc(-c2c[nH]c3ccccc23)nc1-c1c[nH]c2ccccc12 | % | 97.86
COc1ccc(-c2cc(-c3c[nH]c4ccccc34)nc(-c3c[nH]c4ccccc34)c2C#N)cc1 | % | 89.77
N#Cc1c(-c2ccc(F)cc2)cc(-c2c[nH]c3ccccc23)nc1-c1c[nH]c2ccccc12 | % | 99.59
N#Cc1c(-c2ccc(O)cc2)cc(-c2c[nH]c3ccccc23)nc1-c1c[nH]c2ccccc12 | % | 57.19

----------
# System: NCI-H460
# ASSAY_METHOD_TEXT: NCI 60 cell line screen
# Assay type: cell-based
# RUN_CONDITIONS: NCI-H460, Non-Small Cell Lung Cancer; single concentration 10^−5 M
Listing of entries alongside the reported Growth %.
READOUT: Growth % (%)

COMPOUND | READOUT | NUMERIC_VALUE
N#Cc1c(-c2ccccc2)cc(-c2c[nH]c3ccccc23)nc1-c1c[nH]c2ccccc12 [4a] | Growth % | 106.27
COc1cc(-c2cc(-c3c[nH]c4ccccc34)nc(-c3c[nH]c4ccccc34)c2C#N)cc(OC)c1OC [4g] | Growth % | 106.65
N#Cc1c(-c2ccc(Br)cc2)cc(-c2c[nH]c3ccccc23)nc1-c1c[nH]c2ccccc12 [4b] | Growth % | 106.47
CN(C)c1ccc(-c2cc(-c3c[nH]c4ccccc34)nc(-c3c[nH]c4ccccc34)c2C#N)cc1 [4i] | Growth % | 60.31
COc1ccc(-c2cc(-c3c[nH]c4ccccc34)nc(-c3c[nH]c4ccccc34)c2C#N)cc1 [4e] | Growth % | 107.18
N#Cc1c(-c2ccc([N+](=O)[O-])cc2)cc(-c2c[nH]c3ccccc23)nc1-c1c[nH]c2ccccc12 [4h] | Growth % | 100.56
COc1cc(OC)cc(-c2cc(-c3c[nH]c4ccccc34)nc(-c3c[nH]c4ccccc34)c2C#N)c1 [4f] | Growth % | 103.37
N#Cc1c(-c2ccc(F)cc2)cc(-c2c[nH]c3ccccc23)nc1-c1c[nH]c2ccccc12 [4d] | Growth % | 104.14
N#Cc1c(-c2ccc(O)cc2)cc(-c2c[nH]c3ccccc23)nc1-c1c[nH]c2ccccc12 [4j] | Growth % | 103.74
N#Cc1c(-c2ccc(Cl)cc2)cc(-c2c[nH]c3ccccc23)nc1-c1c[nH]c2ccccc12 [4c] | Growth % | 106.15
